# ASSAY SYSTEM: KDR wild type enzyme (Homo sapiens, UniProt P35968)
# Construct: beginning at Val-805 (forward, 5′ tag cgg ccg cGT CATGGATCCAGATGAACTCCCATT (lower case—NotI site)) and ending at Val-1356; GST-His (thrombin cleavage site) (N, cleaved yes); made in house; HEK293 possible
# Sequence (P35968 805-1356): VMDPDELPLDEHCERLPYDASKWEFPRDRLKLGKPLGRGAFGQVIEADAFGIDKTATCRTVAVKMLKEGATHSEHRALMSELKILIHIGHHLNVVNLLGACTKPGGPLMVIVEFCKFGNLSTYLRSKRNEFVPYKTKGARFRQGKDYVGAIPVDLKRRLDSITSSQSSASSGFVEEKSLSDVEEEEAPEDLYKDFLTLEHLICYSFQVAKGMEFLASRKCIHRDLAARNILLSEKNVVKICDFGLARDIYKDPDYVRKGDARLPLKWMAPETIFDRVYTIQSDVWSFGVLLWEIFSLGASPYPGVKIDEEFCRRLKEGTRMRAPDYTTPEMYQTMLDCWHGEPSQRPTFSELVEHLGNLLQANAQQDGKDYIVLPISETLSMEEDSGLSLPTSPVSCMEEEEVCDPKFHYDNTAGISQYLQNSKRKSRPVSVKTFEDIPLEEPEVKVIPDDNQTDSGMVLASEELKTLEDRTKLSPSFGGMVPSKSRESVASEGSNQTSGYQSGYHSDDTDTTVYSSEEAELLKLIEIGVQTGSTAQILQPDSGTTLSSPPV
# PROTOCOL DESCRIPTION: Enzyme wash-out assay, KDR wild type
# Type: biochemical
# TEST CONTEXT: wash out; mean ± standard deviation (N)
pIC50: −log10 of the molar value.
READOUT KIND: pIC50

CPD SMILES | READOUT KIND | ASSAY RESULT
COc1cc2c(Oc3ccc4[nH]c(C)cc4c3F)c(C#N)cnc2cc1OCC1CCN(C)CC1 | pIC50 | 6.56

----------
# ASSAY SYSTEM: KDR-FLAG enzyme (human KDR) (Homo sapiens)
# Construct: starting at Met-806 (underlined) (5′-ATGGATCCAGATGAACTCCCATTG) and ending at Val-1356; made in house
# PROTOCOL DESCRIPTION: Enzyme wash-out assay, KDR-FLAG enzyme
# Assay type: biochemical
# TEST CONTEXT: plate washed three times before ATP addition
READOUT KIND: IC50 (nM)

CPD SMILES | ASSAY RESULT
COCCOc1cc2ncnc(NC3=C(Sc4nccs4)C(=O)C=C(OC)C3=O)c2cc1OC | 33.1
